experiment: protease stability score; higher = more stable; yeast display proteolysis, trypsin and chymotrypsin
Rule: protease stability score under 1 gives false (0), otherwise true (1).

| sequence.content | label.class |
| --- | --- |
| DEIEETIKHLMEEWETSMQTGDEDRIKELLDPHARLEIGEWEFIGRERVAHFLSRADHSEYRIRRIRMIGDKIDIRLEVRLHVNGREIRTETHLIILKINGRWFFKSTHIT | true (1) |
| DEHEKHDRELKRIWVELFETGDEDTLIELADPNPRSRVNGKEFHGMEDIVQFLREWKMRIKGVREEIHHVDVINGRVRIDMKRFVGDKEFDVTIHLYVINGRFKQEEVRVH | false (0) |

Prompt: Could you verify whether the entry DEDREHVERIVDILIHSFKTGDESFLENYLDPNARLEVGDKTHHGREEVKKLVIRWWHELGIKHVHVDKKTTIDGRIIIHLTILFNGRRFETELIWVIVDGVINKVDIRIQER shows protease stability score of no less than 1?
Completion: true (1)

Prompt: Could you verify whether the entry DHDEREYHHFVQILIHSMRTGDWVKLEELMDPHVLIRIGDKELHGREELYRFMLQARIELEVKDYRLYGDKVELDTLLSMLIGDKLSETDSRMKLEKVDGKWIIREIFVDPETKKRLLD shows protease stability score of no less than 1?
Completion: true (1)

====

Below, each entry is listed with its recorded protease stability score.
experiment: protease stability score; higher = more stable; yeast display proteolysis, trypsin and chymotrypsin
Answer field: number only, no words.

Observe how each entry below is paired with its result.
| sequence.content | protease stability score |
| --- | --- |
| DEQEEHLHEMVRRFLHHFLTGDWKTLHRMFDPNARYHINGQDHVGREEINRFWREHWEHARIHDLRIKSVELFENRSHIIGHLDGNIDGKEVRTDVEIILVIVNGRVRYIEVRQH | 1.52 |
| SEKDDHALRVLEEYLHLFLTGNEEVMERLVDPHVRFIYGDKEFHGRELMIRWIREEREQYDHIHWEIRHFESQGDKAHSEVELRIRQGDKRIHVDMHIHIEVVNGRWKRIEVRER | 1.78 |
| SEEEETLKRLAHHMYESYITGDERVIKHLVDPNARSRIGEFDDHGREATEELIRRIDHVHHIDIRDMKIQGNWLHLHVRVDGVVDGKRTEHDMEIIVLKVDGKWIVHSMIQR | 1.05 |

// protease stability score lookup, sequence = SEEEEQVERFLRLWLHALRTGDEDTHERLMDPNTRIQIGNFIFHGRERALKVVHHLIRQIDHIHDFDIHDVRVQGNKVHVDVRLNTHFDGRTIVLNLHIHIHKVDGRWLFTSLSRE , result: 1.23

// protease stability score lookup, sequence = DEDEKDTHIWIKILEHIWDTGDEESFERLADPNVRFIQGEKELHGRERLIRFLSKYKNLTFRSEDYHIVNGRALVRITNHVNGRDLEMIIYYEKVNGQWHNKEIELR , result: 1.27

// protease stability score lookup, sequence = DESQEIAIEASKRLYNHLLTGDEDNLKRLLDPHVRIEIDGRDIHGMEEVTRLKREWRFDSIEIRVDSVRDVNGRLDVKGHMRYHVRIGDKSHDREVKMHLTAEKIDGRWHNKSIHFE , result: 1.26

====

assay: protease stability score; higher = more stable; yeast display proteolysis, trypsin and chymotrypsin;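 further: relative to predicted unfolded state with 0 unfolded-like and 1 meaning tenfold more protease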
observable: protease stability score
Answer field: number only, no words.

| sequence.content | reading |
| --- | --- |
| DEEEKESRLALEEFLTMMKTGDEDRFTELADPHARSHYNGREHHGREVFLDWFRRVKGLKVDLQHVKTFNGRIIIHVRFHYDGVTYYVEIFVEKFDGRWYLTRVHHI | 0.421 |
| DEDEELAKHAIKHWLEALETGDEKRLKELIDPNTRLIVNGQEFHGMESVSKKLIEEIERIPNVTLELHDVRIYNGRVNTDVTVRYNGRTITLHLIILKVNGKWIMESIQLH | 1.78 |
| NEVEDEIKHLLEHLLHSHDTGDWHDLVRLADPNVRVNINGKHFHGREDVEEVIKRLGIKHIRIHHVEVQGDKIHIDGNMHFDGRVYETHIDAKKIDGRWIMHNLEVR | 1.4 |
| DEERELTEKLTRKLIHNWLTGDPEAIRRMLDPNVRVIINGQELHGRERFHEHMHHLLRHMRIDHIDIKDWKFQGEKFHIDLHVHGTIDGVHFIHRTESSVIIVNGKIHQMHVHEI | 1.41 |
| DELEHLANEWMKRVIHHLETGDEESWMKYADPNVRTEINIGDKTEERHGRERYIDFIRRLGFDHVHIHDQRIHHVNGVLFIHLNIKIKQGDYLFTSELDIIVRKIDGQWFVRSINIKVD | 0.601 |

// protease stability score lookup, sequence = SEDEKISEEALRRWVHHNRTGNEQDYVRMADPDTKIEIGDKEFHGREEFVKLARDYGFKHYHLKDNDVIGDKIRIDGIVEFNGQRWEMILYFVKYDGRWSIKSIHIK , result: 1.45

====

experiment: protease stability score; higher = more stable; yeast display proteolysis, trypsin and chymotrypsin;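 further: relative to predicted unfolded state with 0 unfolded-like and 1 meaning tenfold more protease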
observable: protease stability score

Observe how each entry below is paired with its result.
| sequence.content | protease stability score |
| --- | --- |
| DDLEREAKTMVDRFRELMATGDFEEREHLVDPNTRWHVNGQDFHGRELITEILIKKFEDLGVEKITFRVERIRVVGDKIEVDGVLIIDGREIDTRLNWTKVNGRWIIKFESEK | 0.927 |
| SEDEEKVFEHLQRITESFVTGDEDSFRHLLDPNVLFLINGRIFHGWEALHWELRRYDHHEVRVHVHHIDFINGRARSDIRLDLHLNFNGKQIDIHTETRVHAEKINGRWRLKRIDIE | 0.811 |

Below: the item to evaluate.
// protease stability score lookup, sequence = EDEERETEEAIRLFIKNEITGDWKRLLHYLDPNVRVRIGDKEIHGMERWKDEFKQEIDRVKGLRYELDDERRHLVDGKIEIILDFTIHVGEKRHRFQLVLILVKVNGRWIMHSIHVNYL , result: 1.54

====

Below, each entry is listed with its recorded protease stability score.
experiment: protease stability score; higher = more stable; yeast display proteolysis, trypsin and chymotrypsin;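 further: relative to predicted unfolded state with 0 unfolded-like and 1 meaning tenfold more protease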
Answer field: number only, no words.

| sequence.content | reading |
| --- | --- |
| DESERMVLELARLFLEDLLTGNEDLMSHLADPHAKNDINGVDLHGMEVISKHLSELRLRVLDITEERVQGDKVRIKVEVVIQYGDKWRETEVDLELYIVNGRLKSQIWTIR | 1.08 |
| AEQHEQAREFLRNWLEAYHTGDEDLLRSMFDPNVRLHVDGRVIIGREDIIRERLHFLENHGITFHFRIQDMSVQGEKVIFDVEFHYRYNGQDYHKKVWLFVEKINGRWFMTQININ | 2.19 |
| DDRDEVVEVASRLWMEIVETGDEDLFIRLLDPRTRIHIGDKTLHGREQVLDFLREHNRNLGIDRVEVRVERTEIQGEKVVVHSINIFNGKEWHVITIAHKINGRWITKEFHLH | 0.834 |

// protease stability score lookup, sequence = DNKEKLMNKAFEWILELIITGDEDTLHELADPNARNHYGEFHHVGREETTRFLVEFNRRLGVDHVRFERMRVIDGKVHLHIEINVDGRRFESDLIFFKVDGRWKLNFVHFRHV , result: 1.27

// protease stability score lookup, sequence = DEDEDSFRRISKLLSHAFRTGDEDLVLELLDPHVRIVIGDKELHGWEQMDRWVRELRIRDHEIKRLDIQGDKAIVDTRLLTRVGDFHYLIDVRIIFTKVDGQWHVHQFEFH , result: 1.52

// protease stability score lookup, sequence = SEEHEISERLAWMIFELYRTGNEQSIRHLMDPRARIDVNGKEIHGRHIWKERFEEHLVFFKNLRFHLDDVDVQGDKIDIHGTNRFDGRHVRFDLHIHVVDGRLKVITVRIDER , result: 1.55

====

assay: protease stability score; higher = more stable; yeast display proteolysis, trypsin and chymotrypsin;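 further: relative to predicted unfolded state with 0 unfolded-like and 1 meaning tenfold more protease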
observable: protease stability score
Answer field: number only, no words.

Observe how each entry below is paired with its result.
| sequence.content | protease stability score |
| --- | --- |
| DELHHVLEIMLRELITAWRTGDERVLNELFDPHVLIVIGDKYYHGREFVTRWLRHIRIKHSEFHLRRIHIQGDYVHITGEFRIEGEFDGRENTVTHDSKIVTLKIDGRWTFHSIVLE | 2.16 |
| DEDTREKRRILEESLHIFETGDWEAMLKNADPNVRSEIHIGDKRLEFHGMRNWLEEWLTRLEKIKNMTFRIHDIRRQGDKVHIDGDLHVNGKHSKVRIELIIVDGVIHTLFFFDH | 0.953 |
| SEEEKIVDERIKILLESWDTGDWDSFIKMLDPNALSIVGEFVMHGRETVVDALDKLLKKLGVKMETHDTEHFEIYGNKARLETTIHLRVGDFHFKRRTRVHMEKVDGQWFITIYESG | 1.31 |
| NEDEEAHHKLIKEYSRLVDTGDWRSLRRYLDPDYRLRVDGVDIVGRDELHRILEQMLDRVDHLHLNIERHRIQGDFLISDVKHHYEFNGKHVERKVIIYIWKFDGRWIMRYTEVL | 1.02 |

// protease stability score lookup, sequence = DDRERESEEALRLFIETLETGDEHWLKRLMDPNARLHQGEKTIHGMDIFSTWVVEARLKHYHLERVHIQGDKMDVESHVDGHVNGQRLKVQLIFHSLKIDGRWLVKHIIVH , result: 1.4
